Values from patent US8329686B2

Kindly supply the reported IC50 values for the records listed here.
- Experimental Target: caspase-3 (Homo sapiens, UniProt P42574)
- Construct: purchased Sigma-Aldrich (St. Louis, Mo.)
- Sequence (P42574 29-175 limits assumed): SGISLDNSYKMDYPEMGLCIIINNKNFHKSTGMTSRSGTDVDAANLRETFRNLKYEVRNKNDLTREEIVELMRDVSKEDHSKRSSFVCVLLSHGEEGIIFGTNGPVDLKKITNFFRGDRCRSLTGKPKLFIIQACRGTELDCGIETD
- Sequence (P42574 176-277 limits assumed): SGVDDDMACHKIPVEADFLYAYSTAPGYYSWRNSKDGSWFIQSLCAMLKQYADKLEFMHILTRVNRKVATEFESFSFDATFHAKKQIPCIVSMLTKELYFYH
- Assay Notes: Enzyme inhibition assay, caspase 3 (fluorogenic Ac-DEVD-AMC)
- Assay type: biochemical
- Measurement Conditions: Table 2; read-out: IC50 (nM) Caspase 3
Value expressed in nM; do not type the unit.

Problem: Please tell me: IC50 of N#CC(C#N)=C1C(=O)N(Cc2ccc(OCCF)cc2)c2ccc(S(=O)(=O)N3CC[C@H]3COc3cccnc3)cc21 [WC-II-104] , system caspase-3 (Homo sapiens, UniProt P42574)?
Result: 7.1

Problem: Please tell me: IC50 of N#CC(C#N)=C1C(=O)N(Cc2ccc(OCCF)cc2)c2ccc(S(=O)(=O)N3CCC[C@H]3COc3cccnc3)cc21 [WC-II-103] , system caspase-3 (Homo sapiens, UniProt P42574)?
Result: 7.5

Problem: Please tell me: IC50 of COc1ccc(CN2C(=O)C(=C(C#N)C#N)c3cc(S(=O)(=O)N4CC[C@H]4COc4cccnc4)ccc32)cc1 [WC-II-87] , system caspase-3 (Homo sapiens, UniProt P42574)?
Result: 6

Problem: Please tell me: IC50 of N#CC(C#N)=C1C(=O)N(Cc2ccc(Br)cc2)c2ccc(S(=O)(=O)N3CCCC3COc3ccccc3)cc21 (stereo not shown) [Compound 27d] , system caspase-3 (Homo sapiens, UniProt P42574)?
Result: 20.1

Problem: Please tell me: IC50 of N#CC(C#N)=C1C(=O)N(Cc2ccc(OCCF)cc2)c2ccc(S(=O)(=O)N3CCC[C@H]3COc3ccccc3)cc21 [WC-II-92] , system caspase-3 (Homo sapiens, UniProt P42574)?
Result: 18.3

Problem: Please tell me: IC50 of N#CC(C#N)=C1C(=O)N(Cc2ccc(O)cc2)c2ccc(S(=O)(=O)N3CCC[C@H]3COc3ccccc3)cc21 [Compound 27c] , system caspase-3 (Homo sapiens, UniProt P42574)?
Result: 31.8
